Recorded PBM E-score of 8-mer, one value per entry.
System: SpTbr T-box DNA-binding domain (GST fusion);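 note: protein at 200 nM in PBS on universal double-stranded arrays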
Sequence: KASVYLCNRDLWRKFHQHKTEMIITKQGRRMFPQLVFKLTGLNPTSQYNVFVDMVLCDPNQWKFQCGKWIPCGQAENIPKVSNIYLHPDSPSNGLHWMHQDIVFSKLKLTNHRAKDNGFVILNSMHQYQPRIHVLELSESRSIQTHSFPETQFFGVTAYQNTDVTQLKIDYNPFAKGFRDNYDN
Experiment Description: PBM E-score of 8-mer (E-score (dimensionless, -0.5 to 0.5)); Tbr is Tbrain of the sea star Patiria miniata (Pm) or the sea urchin Strongylocentrotus purpuratus (Sp); higher = stronger binding preference
Experimental Parameters: the construct has about 5 more residues each side
In all, about 33,000 sequences were measured (“E-score (dimensionless, -0.5 to 0.5)”: median about -0.046, highest 2% from about 0.36 on). The sample holds the highest values, similar sequences and a random draw of the others, so the mix is not that of the screen.
Lab note: record just the number, no unit beside it.

# example entries with known answers
> print(dat)
    sequence.data  measured.value
 1       CCCCTCCG           0.119
 2       AACGCATG          0.0228
 3       CTCCAAAC         -0.0591
 4       CTTCGCTC        -0.00285
 5       GTCGAGCA          0.0707
 6       CACCTCCC           0.389
 7       AGGTGGCA           0.432
 8       ATCTGGCG          0.0377
 9       CGGTGGCA           0.186
10       ATGTAAAC          0.0731

Q) Fill in: PBM E-score of 8-mer of `AGGTGGCC` is ___
A) 0.075

Q) GET /values?readout=PBM E-score of 8-mer&item= `AATCGCGA`
A) 0.385

Q) Request the reported PBM E-score of 8-mer associated with `ATTCGCGG`
A) 0.275

Q) Report PBM E-score of 8-mer for `CAAGCTTC` please.
A) -0.215

Q) Data request, read-out PBM E-score of 8-mer, for `AACCTCCA`
A) -0.135

Q) Suppose we examine the sequence `AAGGATTA` ; what PBM E-score of 8-mer value has been reported?
A) -0.152

Q) Entry `ATTCGCTA` : reported PBM E-score of 8-mer = ?
A) 0.208

Q) What value of PBM E-score of 8-mer has been recorded for this entry: `CATCGCGC`
A) 0.259

Q) Given the sequence `CAGGCTAC` , what is its reported PBM E-score of 8-mer?
A) -0.221

Q) // returns reported PBM E-score of 8-mer for input `AGGTGGAG`
A) 0.158

Q) Which PBM E-score of 8-mer value is on record for `GGGTGGCA` ?
A) 0.288

Q) Find the recorded PBM E-score of 8-mer belonging to `CACCTCCA` and report it.
A) 0.388
